I'd appreciate it if you could supply Kd values for the items below.
- Assay System: T1, human IL-15Rα (human, UniProt Q13261 31-205, limits assumed)
- T1 construct: also called hIL-15Rα; IL-15 receptor alpha
- T1 sequence (Q13261 31-205 limits assumed): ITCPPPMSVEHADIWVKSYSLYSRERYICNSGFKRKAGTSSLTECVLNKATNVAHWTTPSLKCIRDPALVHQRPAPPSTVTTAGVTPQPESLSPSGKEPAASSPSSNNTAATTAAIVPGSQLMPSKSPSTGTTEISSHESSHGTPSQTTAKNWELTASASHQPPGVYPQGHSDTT
- Experiment Notes: SPR, steady state
Just the number in nM, nothing appended.

Reported Kd for hIL-15 V49R/K10A (ligand) NWVNVISDLAKIEDLIQSMHIDATLYTESDVHPSCKVTAMKCFLLELQRISLESGDASIHDTVENLIILANNSLSSNGNVTESGCKECEELEEKNIKEFLQSFVHIVQMFINTGGGGSGHHHHHHHHGGGLNDIFEAQKIEWHE : what is it?
150

Which Kd value belongs to hIL-15 V49R/S7A (ligand) NWVNVIADLKKIEDLIQSMHIDATLYTESDVHPSCKVTAMKCFLLELQRISLESGDASIHDTVENLIILANNSLSSNGNVTESGCKECEELEEKNIKEFLQSFVHIVQMFINTGGGGSGHHHHHHHHGGGLNDIFEAQKIEWHE ?
84

// Kd lookup, key: hIL-15 V49R/K10D (ligand) NWVNVISDLDKIEDLIQSMHIDATLYTESDVHPSCKVTAMKCFLLELQRISLESGDASIHDTVENLIILANNSLSSNGNVTESGCKECEELEEKNIKEFLQSFVHIVQMFINTGGGGSGHHHHHHHHGGGLNDIFEAQKIEWHE
270

Form field: reported Kd of hIL-15 V49R/K11L (ligand) NWVNVISDLKLIEDLIQSMHIDATLYTESDVHPSCKVTAMKCFLLELQRISLESGDASIHDTVENLIILANNSLSSNGNVTESGCKECEELEEKNIKEFLQSFVHIVQMFINTGGGGSGHHHHHHHHGGGLNDIFEAQKIEWHE
142
